Attribution: paper PMC6797804

TARGET SYSTEM: T1, MORF DPF domain (residues 211–322) F218A (human, UniProt Q8WYB5 211-322, F218A)
T1 sequence: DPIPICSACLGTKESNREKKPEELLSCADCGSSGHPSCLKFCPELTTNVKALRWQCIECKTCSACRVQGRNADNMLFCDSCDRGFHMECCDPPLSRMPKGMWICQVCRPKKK
pKd: −log10 of the molar value.
METRIC: pKd

>>> df
                                     binder  readout_value
0  ARTKQTARKSTGGKAPRKQ [unmodified histone H3 peptide (residues 1–19 of H3)]           5.48
